// reported pIC50 for each item listed
- system.tested: UniProt:Q9UKK3
- Sequence (Q9UKK3 1-573 limits assumed): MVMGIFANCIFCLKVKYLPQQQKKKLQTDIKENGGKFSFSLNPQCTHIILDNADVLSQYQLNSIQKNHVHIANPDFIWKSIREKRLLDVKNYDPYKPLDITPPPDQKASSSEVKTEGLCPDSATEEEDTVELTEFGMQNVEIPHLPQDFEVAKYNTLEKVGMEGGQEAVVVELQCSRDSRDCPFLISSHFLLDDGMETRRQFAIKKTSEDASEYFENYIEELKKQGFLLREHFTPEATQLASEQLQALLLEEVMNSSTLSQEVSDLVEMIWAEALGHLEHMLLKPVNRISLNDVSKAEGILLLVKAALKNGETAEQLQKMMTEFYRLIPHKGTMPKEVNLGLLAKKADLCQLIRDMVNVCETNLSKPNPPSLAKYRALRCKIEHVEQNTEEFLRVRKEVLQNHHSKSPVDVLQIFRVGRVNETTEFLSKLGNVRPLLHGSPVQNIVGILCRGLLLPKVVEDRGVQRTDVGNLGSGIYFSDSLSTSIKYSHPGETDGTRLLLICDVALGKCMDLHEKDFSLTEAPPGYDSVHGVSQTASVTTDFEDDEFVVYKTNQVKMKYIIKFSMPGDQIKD
pIC50: −log10 of the molar value.

GET /value?item= "CC#Cc1ccc2c(=O)[nH]c(CSc3ccc(C(=O)O)cc3)nc2c1C" &field=pIC50 returns < 4.52

Here is another compound to look at.
GET /value?item= "CC#Cc1ccc2c(=O)[nH]c(CSc3ncccn3)nc2c1C" &field=pIC50 returns < 4.52

Origin of values: patent US12404250B2
